Tested on: 885724-159-R-J1-PDC KRAS PDC multicell spheroid viability;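 note: spheroids exposed to agents for 7 days before readout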
Assay Comment: Anticancer human tumor 885724-159-R-J1-PDC patient-derived pancreatic adenocarcinoma cell line growth inhibition [KRAS2]
Setup Conditions: second compound 3.16 µM; first compound 0.01 µM; hits give low values
Experimental Readout: viability, T/C (%)
Response body: numeric value in %, unit text excluded.

Query: Fill blank: measured viability, T/C of the molecule CN(C)C/C=C/C(=O)Nc1cc2c(Nc3ccc(F)c(Cl)c3)ncnc2cc1O[C@H]1CCOC1 + C=CC(=O)N1CCN(c2nc(=O)n(-c3c(C)ccnc3C(C)C)c3nc(-c4c(O)cccc4F)c(F)cc23)C(C)C1 is ____.
Result: 97

Query: Fill blank: measured viability, T/C of the molecule CN(C)C/C=C/C(=O)Nc1cc2c(Nc3ccc(F)c(Cl)c3)ncnc2cc1O[C@H]1CCOC1 + C=CC(=O)N1CCN(c2nc(OCC3CCCN3C)nc3c2CCN(c2cccc4cccc(C)c24)C3)CC1CC#N is ____.
Result: 37.7

Query: Fill blank: measured viability, T/C of the molecule CCN1CCN(Cc2ccc(Nc3ncc(F)c(-c4cc(F)c5nc(C)n(C(C)C)c5c4)n3)nc2)CC1 + C=CC(=O)N1CCN(c2nc(OCC3CCCN3C)nc3c2CCN(c2cccc4cccc(C)c24)C3)CC1CC#N is ____.
Result: 54.1

Query: Fill blank: measured viability, T/C of the molecule CC(C)n1nc(-c2ccc3oc(N)nc3c2)c2c(N)ncnc21 + CNCc1ccccc1-c1csc(C(C)Nc2nc(C)nc3cc(OC)c(OC)cc23)c1 is ____.
Result: 1.36

Query: Fill blank: measured viability, T/C of the molecule CC(=O)OC12COC1CC(O)C1(C)C(=O)C(O)C3=C(C)C(OC(=O)C(O)C(NC(=O)OC(C)(C)C)c4ccccc4)CC(O)(C(OC(=O)c4ccccc4)C21)C3(C)C (stereo not given) + CNCc1ccccc1-c1csc(C(C)Nc2nc(C)nc3cc(OC)c(OC)cc23)c1 is ____.
Result: 0.36

Query: Fill blank: measured viability, T/C of the molecule CN(C)C/C=C/C(=O)Nc1cc2c(Nc3ccc(F)c(Cl)c3)ncnc2cc1O[C@H]1CCOC1 + CC1OCC2(CCN(c3cnc(Sc4ccnc(N)c4Cl)c(N)n3)CC2)C1N is ____.
Result: 72.8

Query: Fill blank: measured viability, T/C of the molecule CC(=O)Nc1cccc(-n2c(=O)n(C3CC3)c(=O)c3c(Nc4ccc(I)cc4F)n(C)c(=O)c(C)c32)c1 + CC1OCC2(CCN(c3cnc(Sc4ccnc(N)c4Cl)c(N)n3)CC2)C1N is ____.
Result: 17.5

Query: Fill blank: measured viability, T/C of the molecule Cn1ncnc1[C@H]1c2n[nH]c(=O)c3cc(F)cc(c23)N[C@@H]1c1ccc(F)cc1 + COc1cc2nc(C)nc(NC(C)c3cc(N)cc(C(F)(F)F)c3)c2cc1OC1CCOC1 is ____.
Result: 88.5

Query: Fill blank: measured viability, T/C of the molecule CC(=O)OC12COC1CC(O)C1(C)C(=O)C(O)C3=C(C)C(OC(=O)C(O)C(NC(=O)OC(C)(C)C)c4ccccc4)CC(O)(C(OC(=O)c4ccccc4)C21)C3(C)C (stereo not given) + C=CC(=O)N1CCN(c2nc(OCC3CCCN3C)nc3c2CCN(c2cccc4cccc(C)c24)C3)CC1CC#N is ____.
Result: 87.2

Query: Fill blank: measured viability, T/C of the molecule CC(=O)Nc1cccc(-n2c(=O)n(C3CC3)c(=O)c3c(Nc4ccc(I)cc4F)n(C)c(=O)c(C)c32)c1 + CNCc1ccccc1-c1csc(C(C)Nc2nc(C)nc3cc(OC)c(OC)cc23)c1 is ____.
Result: 0.79

Data origin, for the record: PubChem BioAssay AID1963861
